Provide the recorded collision cross section in nitrogen for the entries that follow.
Test: collision cross section in nitrogen (drift tube, single-field); higher = larger gas-phase ion size;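 note: chemical standards at 10 µM analysed by drift tube IMS-QTOF MS in about 3.95 torr nitrogen, mean of duplicate injections differing ≤1%, mass error below 10 ppm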
Conditions: ion type: [M+H]; ion source: APCI; ion mode: Positive
Answers are plain numbers, in Å².

Use the examples below as a reference point.
O=C(Nc1ccccc1)Nc1ccnc(Cl)c1: 156.5
Nc1ccc(Oc2ccc(N)cc2)cc1: 167.4
Cc1ccc2[nH]nnc2c1: 125.1
CCN(CCO)c1cccc(C)c1: 140
Cc1cc(C2(c3cc(C)c(O)cc3C)OS(=O)(=O)c3ccccc32)c(C)cc1O: 194.4

Please state, for each entry, its recorded collision cross section in nitrogen.
1. NC(=O)c1ccc(N)cc1 [4-Aminobenzamide]
2. O=C(NC(=O)c1cc(F)c(F)cc1Cl)Nc1cc(F)ccc1N1CCC(C(=O)O)CC1
3. N=C(N)NC(=N)NCCc1ccccc1
4. CCN(CCC#N)c1ccccc1 [3-[Ethyl(phenyl)amino]propanenitrile]

Reply:
1: 126.4; 2: 202.7; 3: 145.7; 4: 138.5

###

Experiment: collision cross section in nitrogen (drift tube, single-field); higher = larger gas-phase ion size
Conditions: ion type: [M+H]; ion source: ESI; ion mode: Positive
I would appreciate it if you labelled entries Y when collision cross section in nitrogen is 200 Å² or higher, otherwise N.

CC#C[C@]1(O)CC[C@H]2[C@@H]3CCC4=CC(=O)CCC4=C3[C@@H](c3ccc(N(C)C)cc3)C[C@@]21C [Mifepristone]: Y
CCCCCCCCCCCC[N+](C)(C)[O-] [N,N-Dimethyldodecylamine-N-oxide]: N
c1cc(N(CC2CO2)CC2CO2)ccc1OCC1CO1 (configuration not stated) [4-(Diglycidylamino)phenyl glycidyl ether]: N
O=C(O)c1ccccc1-n1cc(C(=O)O)c(=O)c2cc(Nc3c(F)cc(F)cc3Cl)c(Cl)cc21 [AVE9423]: Y
Cc1cccc(NC(=S)N(C)C)c1 [Methiuron]: N

Ask: API: above_or_equal(metric=collision cross section in nitrogen, cutoff=200 Å²) for item COc1ccc(S(=O)(=O)N2C(=O)[C@@](c3ccccc3OC)(N3C[C@H](O)C[C@H]3C(=O)N(C)C)c3cc(Cl)ccc32)c(OC)c1 [Nelivaptan]
Reply: Y

Ask: For this compound, is measured collision cross section in nitrogen 200 Å² or higher? CCCCCCCCOCCCN [3-(Octyloxy)propan-1-amine]
Reply: N

Ask: Is reported collision cross section in nitrogen greater than or equal to 200 Å² here: OCCN(CCO)CCN(CCO)CCO [2,2',2'',2'''-(1,2-Ethanediyldinitrilo)tetrakisethanol]
Reply: N

Ask: Confirm if collision cross section in nitrogen reported for the compound c1ccc2[nH]c(-c3cscn3)nc2c1 [Thiabendazole] is 200 Å² or above.
Reply: N

Ask: Hello, I need to know if CC(C)Nc1nc(N)nc(Cl)n1 [Desethylatrazine] has measured collision cross section in nitrogen not below 200 Å². Thanks!
Reply: N

Ask: # check: collision cross section in nitrogen of O=C(O)c1c(Cl)ccc2cc(Cl)cnc12 [Quinclorac] is greater than or equal to 200 Å²
Reply: N

Ask: Given the entry Cc1ccc2nc(-c3ccc(N)cc3)sc2c1 [Dehydrothio-4-toluidine] , answer whether its collision cross section in nitrogen meets or surpasses 200 Å².
Reply: N

Ask: Would you say c1ccc2[nH]cnc2c1 [Benzimidazole] shows collision cross section in nitrogen at minimum 200 Å²?
Reply: N

Ask: Hello, I need to know if CCN(Cc1cccc(S(=O)(=O)O)c1)c1ccc(C(=C2C=CC(=[N+](CC)Cc3cccc(S(=O)(=O)O)c3)C=C2)c2ccc(O)cc2S(=O)(=O)[O-])cc1 [FD&C Green No. 3] has measured collision cross section in nitrogen not below 200 Å². Thanks!
Reply: Y

Ask: Evaluate CN(C)C(=O)Nc1ccc(Oc2ccc(Cl)cc2)cc1 [Chloroxuron] : collision cross section in nitrogen at minimum 200 Å²?
Reply: N

Ask: Check this compound for collision cross section in nitrogen at or above 200 Å²: CSc1nnc(C(C)(C)C)c(=O)n1N [Metribuzin]
Reply: N

All values here come from the supplement of paper PMC12317010.
